Hello, the source for this data is patent US9765075B2, in case you need it.

Target: UniProtKB Q96EB6
Assay: Trp mass spectrometry assay (SIRT1 activation)
Format: biochemical
Settings: percent maximum fold activation of SIRT1; Trp peptide substrate; read-out: Tryp % Fold Act

{"molecule": "Cc1nc(NC(=O)N2c3nc(-c4cncc(C(F)(F)F)c4)ccc3N3CCC[C@H]2C3)sc1C", "Emax": "≥ 150%"}
{"molecule": "O=C1OC2(c3ccc(O)cc3Oc3cc(O)ccc32)c2ccc(NC(=S)NCc3cn(-c4cccc(NC(=O)N5c6nc(-c7cccc(C(F)(F)F)c7)ccc6N6CC[C@H]5C6)c4)nn3)cc21", "Emax": "< 150%"}
{"molecule": "O=C(Nc1ccncn1)N1c2nc(-c3cncc(F)c3)ccc2N2CCC1CC2", "Emax": "< 150%"}
{"molecule": "O=C(Nc1cnccn1)N1c2nc(-c3cccc(Cl)c3)cc(O)c2N2CC[C@H]1C2", "Emax": "≥ 150%"}
{"molecule": "O=C(Nc1ccncn1)N1c2nc(-c3cncc(Cl)c3)ccc2N2CCC1CC2", "Emax": "≥ 150%"}
{"molecule": "O=C(NCCCCc1ccccc1)N1c2nc(-c3cccc(C(F)(F)F)c3)ccc2N2CC[C@H]1C2", "Emax": "≥ 150%"}
{"molecule": "CS(=O)(=O)c1cncc(-c2ccc3c(n2)N(C(=O)Nc2ccncn2)[C@H]2CCCN3C2)c1", "Emax": "≥ 150%"}
{"molecule": "COc1cc(NC(=O)N2c3nc(-c4ccnc(N5CCC(C(F)(F)F)C5)c4)ccc3N3CC[C@H]2C3)ncn1 (stereo partly drawn)", "Emax": "≥ 150%"}
{"molecule": "O=C(Nc1cncc(F)c1)N1c2nc(-c3cncc(C(F)(F)F)c3)ccc2N2CCC[C@H]1C2", "Emax": "≥ 150%"}
{"molecule": "NCc1cn(-c2cccc(NC(=O)N3c4nc(-c5cccc(C(F)(F)F)c5)ccc4N4CC[C@H]3C4)c2)nn1", "Emax": "≥ 150%"}
{"molecule": "Cc1ccc(-c2ccc3c(n2)N(C(=O)Nc2cncc(F)c2)[C@H]2CCN3C2)cn1", "Emax": "≥ 150%"}
{"molecule": "CC(=O)N1CCCN(c2ccc3c(n2)N(C(=O)Nc2ccncn2)[C@H]2CCCN3C2)CC1", "Emax": "< 150%"}
{"molecule": "NC(=O)c1cncc(-c2ccc3c(n2)N(C(=O)Nc2ccccn2)[C@H]2CCN3C2)c1", "Emax": "≥ 150%"}
{"molecule": "CN(C)[C@H]1CCN(c2ccc3c(n2)N(C(=O)Nc2nccs2)[C@H]2CCN3C2)C1", "Emax": "≥ 150%"}
{"molecule": "Cc1[nH]ncc1-c1ccc2c(n1)N(C(=O)Nc1cccnc1)[C@H]1CCN2C1", "Emax": "≥ 150%"}

###

Molecular target: UniProt:Q96EB6
Test: Trp mass spectrometry assay (SIRT1 activation)
Format: biochemical
Conditions: concentration of test compound that results in 150% activation of SIRT1; Trp peptide substrate

{"compound": "O=C(Nc1cncc(F)c1)N1c2nc(N3CCCC(C(F)(F)F)C3)ccc2N2CC[C@H]1C2 (stereo partly shown)", "system name": "UniProt:Q96EB6", "Tryp AVG EC1.5 (μM)": "B (EC1.5 1-25 μM)"}
{"compound": "Cc1ccc(-c2cccc(NC(=O)N3c4nc(-c5cccc(C(F)(F)F)c5)ccc4N4CC[C@H]3C4)c2)cc1C", "system name": "UniProt:Q96EB6", "Tryp AVG EC1.5 (μM)": "C (EC1.5>25 μM)"}
{"compound": "CS(=O)(=O)c1cncc(-c2ccc3c(n2)N(C(=O)Nc2ccncn2)[C@H]2CCCN3C2)c1", "system name": "UniProt:Q96EB6", "Tryp AVG EC1.5 (μM)": "A (EC1.5<1 μM)"}
{"compound": "CS(=O)(=O)c1cncc(-c2ccc3c(n2)N(C(=O)Nc2ccccn2)[C@H]2CCN3C2)c1", "system name": "UniProt:Q96EB6", "Tryp AVG EC1.5 (μM)": "B (EC1.5 1-25 μM)"}
{"compound": "O=C(Nc1cncc(F)c1)N1c2nc(-c3cccc(C(F)(F)F)c3)ccc2S(=O)(=O)N2CC[C@H]1C2", "system name": "UniProt:Q96EB6", "Tryp AVG EC1.5 (μM)": "B (EC1.5 1-25 μM)"}
{"compound": "Cc1ccncc1-c1ccc2c(n1)N(C(=O)Nc1cccnc1)[C@H]1CCCN2C1", "system name": "UniProt:Q96EB6", "Tryp AVG EC1.5 (μM)": "B (EC1.5 1-25 μM)"}
{"compound": "O=C(Nc1cncc(F)c1)N1c2nc(-c3cncc(Cl)c3)ccc2N2CCC1CC2", "system name": "UniProt:Q96EB6", "Tryp AVG EC1.5 (μM)": "B (EC1.5 1-25 μM)"}
{"compound": "COc1cc(NC(=O)N2c3nc(-c4cnccc4C)ccc3N3CCC[C@H]2C3)ncn1", "system name": "UniProt:Q96EB6", "Tryp AVG EC1.5 (μM)": "C (EC1.5>25 μM)"}
{"compound": "Cc1csc(NC(=O)N2c3nc(N4CCCC(C(F)(F)F)C4)ccc3N3CCC[C@@H]2C3)n1 (stereo partly shown)", "system name": "UniProt:Q96EB6", "Tryp AVG EC1.5 (μM)": "B (EC1.5 1-25 μM)"}
{"compound": "COc1cc(NC(=O)N2c3nc(-c4ccnc(N5CC[C@@H](F)C5)c4)ccc3N3CC[C@H]2C3)ncn1", "system name": "UniProt:Q96EB6", "Tryp AVG EC1.5 (μM)": "B (EC1.5 1-25 μM)"}
{"compound": "Cc1nc(C)c(-c2ccc3c(n2)N(C(=O)Nc2cccnc2)[C@H]2CCN3C2)s1", "system name": "UniProt:Q96EB6", "Tryp AVG EC1.5 (μM)": "B (EC1.5 1-25 μM)"}
{"compound": "COc1cc(-c2cccc(Cl)c2)nc2c1N1CC[C@@H](C1)N2C(=O)Nc1cnccn1", "system name": "UniProt:Q96EB6", "Tryp AVG EC1.5 (μM)": "A (EC1.5<1 μM)"}
{"compound": "CN(C)c1ccc(-c2ccc3c(n2)N(C(=O)Nc2ccccn2)[C@H]2CCN3C2)cn1", "system name": "UniProt:Q96EB6", "Tryp AVG EC1.5 (μM)": "B (EC1.5 1-25 μM)"}
{"compound": "Cc1ccc(-c2ccc(NC(=O)N3c4nc(-c5cccc(C(F)(F)F)c5)ccc4N4CC[C@H]3C4)cc2)o1", "system name": "UniProt:Q96EB6", "Tryp AVG EC1.5 (μM)": "B (EC1.5 1-25 μM)"}
{"compound": "CN(C)[C@H]1CCN(c2ccc3c(n2)N(C(=O)Nc2nccs2)[C@H]2CCN3C2)C1", "system name": "UniProt:Q96EB6", "Tryp AVG EC1.5 (μM)": "B (EC1.5 1-25 μM)"}
{"compound": "CS(=O)(=O)c1ccc(-c2ccc3c(n2)N(C(=O)Nc2ccccn2)[C@H]2CCN3C2)cc1", "system name": "UniProt:Q96EB6", "Tryp AVG EC1.5 (μM)": "B (EC1.5 1-25 μM)"}

###

Target: SIRT1 (Homo sapiens)
Assay: Trp mass spectrometry assay (SIRT1 activation)
Assay type: biochemical
Details: Trp mass spectrometry assay; EC1.5 = concentration giving 150% activation of SIRT1

{"compound smiles": "CC(C)(C)OC(=O)NCCCc1ccc(NC(=O)N2c3nc(-c4cccc(C(F)(F)F)c4)ccc3N3CCC[C@H]2C3)cc1-c1cnco1", "Tryp AVG EC1.5 (μM)": "A (EC1.5<1 μM)"}
{"compound smiles": "Cc1nc(NC(=O)N2c3nc(-c4cccc(C(F)(F)F)c4)ccc3N3C[C@@H](O)[C@H]2C3)sc1C", "Tryp AVG EC1.5 (μM)": "B (EC1.5 1-25 μM)"}
{"compound smiles": "O=C(NCCCn1ccnc1)N1c2nc(-c3cccc(C(F)(F)F)c3)ccc2N2CC[C@H]1C2", "Tryp AVG EC1.5 (μM)": "B (EC1.5 1-25 μM)"}
{"compound smiles": "CS(=O)(=O)c1cccc(-c2ccc3c(n2)N(C(=O)Nc2cncc(-c4cnco4)c2)[C@H]2CCN3C2)c1", "Tryp AVG EC1.5 (μM)": "A (EC1.5<1 μM)"}
{"compound smiles": "CC(=O)c1cccc(NC(=O)N2c3nc(-c4cccc(C(F)(F)F)c4)ccc3N3CC[C@H]2C3)c1", "Tryp AVG EC1.5 (μM)": "A (EC1.5<1 μM)"}
{"compound smiles": "O=C(Nc1cccc(-c2cnco2)c1)N1c2nc(-c3cccc(C(F)(F)F)c3)ccc2N2C[C@@H](O)[C@H]1C2", "Tryp AVG EC1.5 (μM)": "A (EC1.5<1 μM)"}

###

Target: SIRT1 (Homo sapiens, UniProt Q96EB6)
Sequence (Q96EB6 whole entry): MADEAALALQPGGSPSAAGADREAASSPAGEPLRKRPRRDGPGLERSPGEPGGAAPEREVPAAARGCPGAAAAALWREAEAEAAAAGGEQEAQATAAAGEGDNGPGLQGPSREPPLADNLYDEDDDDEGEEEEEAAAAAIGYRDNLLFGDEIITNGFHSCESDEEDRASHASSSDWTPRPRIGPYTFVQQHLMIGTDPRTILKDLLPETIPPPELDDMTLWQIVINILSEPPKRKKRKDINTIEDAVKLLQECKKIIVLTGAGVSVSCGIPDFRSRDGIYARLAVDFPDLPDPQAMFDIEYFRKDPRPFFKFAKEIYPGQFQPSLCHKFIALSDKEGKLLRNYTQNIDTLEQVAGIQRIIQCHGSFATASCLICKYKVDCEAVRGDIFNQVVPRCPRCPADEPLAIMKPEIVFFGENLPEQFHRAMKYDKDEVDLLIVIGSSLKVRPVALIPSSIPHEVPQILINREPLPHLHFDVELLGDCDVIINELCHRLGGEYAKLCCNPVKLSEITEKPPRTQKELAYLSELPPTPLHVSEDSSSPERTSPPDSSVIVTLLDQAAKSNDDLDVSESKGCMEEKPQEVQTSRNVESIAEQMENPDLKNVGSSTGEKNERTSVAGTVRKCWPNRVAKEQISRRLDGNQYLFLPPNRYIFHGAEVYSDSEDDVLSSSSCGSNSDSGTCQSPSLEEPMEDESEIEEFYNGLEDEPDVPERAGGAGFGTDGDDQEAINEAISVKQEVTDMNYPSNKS
Assay: Trp mass spectrometry assay (SIRT1 activation)
Assay type: biochemical
Conditions: concentration of test compound that results in 150% activation of SIRT1; Trp peptide substrate
observable: Tryp AVG EC1.5 (μM)

{"molecule": "O=C(Nc1cnccn1)N1c2nc(-c3cccnc3)ccc2N2CCC[C@H]1C2", "system name": "SIRT1 (Homo sapiens, UniProt Q96EB6)", "observable": "Tryp AVG EC1.5 (μM)", "value observed": "B (EC1.5 1-25 μM)"}
{"molecule": "O=C(Nc1cncc(F)c1)N1c2nc(-c3cccnc3)ccc2N2CCC[C@H]1C2", "system name": "SIRT1 (Homo sapiens, UniProt Q96EB6)", "observable": "Tryp AVG EC1.5 (μM)", "value observed": "B (EC1.5 1-25 μM)"}
{"molecule": "N#Cc1cccc(-c2ccc3c(n2)N(C(=O)Nc2ccccn2)[C@@H]2CCCN3C2)c1", "system name": "SIRT1 (Homo sapiens, UniProt Q96EB6)", "observable": "Tryp AVG EC1.5 (μM)", "value observed": "B (EC1.5 1-25 μM)"}
{"molecule": "Cc1[nH]ncc1-c1ccc2c(n1)N(C(=O)Nc1cccnc1)[C@H]1CCN2C1", "system name": "SIRT1 (Homo sapiens, UniProt Q96EB6)", "observable": "Tryp AVG EC1.5 (μM)", "value observed": "B (EC1.5 1-25 μM)"}
{"molecule": "O=C(Nc1cnccn1)N1c2nc(-c3cccc(N4CCC(F)(F)C4)c3)ccc2N2CC[C@H]1C2", "system name": "SIRT1 (Homo sapiens, UniProt Q96EB6)", "observable": "Tryp AVG EC1.5 (μM)", "value observed": "A (EC1.5<1 μM)"}
{"molecule": "NCc1cn(-c2cccc(NC(=O)N3c4nc(-c5cccc(C(F)(F)F)c5)ccc4N4CC[C@H]3C4)c2)nn1", "system name": "SIRT1 (Homo sapiens, UniProt Q96EB6)", "observable": "Tryp AVG EC1.5 (μM)", "value observed": "A (EC1.5<1 μM)"}
{"molecule": "N#Cc1ccccc1-c1ccc2c(n1)N(C(=O)Nc1cncc(F)c1)[C@H]1CCCN2C1", "system name": "SIRT1 (Homo sapiens, UniProt Q96EB6)", "observable": "Tryp AVG EC1.5 (μM)", "value observed": "B (EC1.5 1-25 μM)"}
{"molecule": "O=C(Nc1cncc(F)c1)N1c2nc(-c3cccc(N4CCOCC4)c3)ccc2N2CCC[C@H]1C2", "system name": "SIRT1 (Homo sapiens, UniProt Q96EB6)", "observable": "Tryp AVG EC1.5 (μM)", "value observed": "A (EC1.5<1 μM)"}
{"molecule": "Cc1cc(NC(=O)N2c3nc(N4CCCC(C(F)(F)F)C4)ccc3N3CC[C@H]2C3)cc(C)n1 (stereo partly shown)", "system name": "SIRT1 (Homo sapiens, UniProt Q96EB6)", "observable": "Tryp AVG EC1.5 (μM)", "value observed": "B (EC1.5 1-25 μM)"}
{"molecule": "COc1cc(NC(=O)N2c3nc(-c4cccc(N5CCC(F)(F)C5)c4)ccc3N3CC[C@H]2C3)ncn1", "system name": "SIRT1 (Homo sapiens, UniProt Q96EB6)", "observable": "Tryp AVG EC1.5 (μM)", "value observed": "B (EC1.5 1-25 μM)"}
{"molecule": "COc1ccc(-c2ccc3c(n2)N(C(=O)Nc2cnccn2)[C@H]2CCN3C2)cn1", "system name": "SIRT1 (Homo sapiens, UniProt Q96EB6)", "observable": "Tryp AVG EC1.5 (μM)", "value observed": "B (EC1.5 1-25 μM)"}
{"molecule": "N#Cc1cccc(-c2ccc3c(n2)N(C(=O)Nc2ccncn2)[C@H]2CCCN3C2)c1", "system name": "SIRT1 (Homo sapiens, UniProt Q96EB6)", "observable": "Tryp AVG EC1.5 (μM)", "value observed": "A (EC1.5<1 μM)"}
{"molecule": "O=C(Nc1ccc(-n2cncn2)cc1)N1c2nc(-c3cccc(C(F)(F)F)c3)ccc2N2CC[C@H]1C2", "system name": "SIRT1 (Homo sapiens, UniProt Q96EB6)", "observable": "Tryp AVG EC1.5 (μM)", "value observed": "A (EC1.5<1 μM)"}
{"molecule": "O=C(Nc1ccccn1)N1c2nc(-c3ccc4c(c3)OC(F)(F)O4)ccc2N2CC[C@H]1C2", "system name": "SIRT1 (Homo sapiens, UniProt Q96EB6)", "observable": "Tryp AVG EC1.5 (μM)", "value observed": "B (EC1.5 1-25 μM)"}
{"molecule": "O=C(Nc1ccccn1)N1c2nc(-c3cncc(Cl)c3)ccc2N2CCC1CC2", "system name": "SIRT1 (Homo sapiens, UniProt Q96EB6)", "observable": "Tryp AVG EC1.5 (μM)", "value observed": "B (EC1.5 1-25 μM)"}
